System: PFCDPK1(P.falciparum);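 note: KINOMEscan scanMAX binding as percent activity remaining versus control; lower means stronger binding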
Construct: gene CDPK1
statedConditions: Compound Concentration (nM):1000
readoutLabel: Percent Control (%)
Quick note: give the figure in %, leave out the unit.

Answer with the recorded Percent Control for the compound listed here: Cl.O=C(Nc1ccc(Oc2ccc3[nH]c(NC(=O)c4ccccc4)nc3c2)cc1)Nc1cc(C(F)(F)F)ccc1F [GW709042A]
100

Input O=C(Nc1n[nH]c2nc(-c3ccc(O)cc3)c(Br)cc12)C1CC1 , output reported Percent Control.
32

State, in one line, measured Percent Control of COc1cc(N2CCN(C(C)C)CC2)ccc1Nc1nc(Nc2ccc(F)cc2C(=O)NC[C@@H](O)CO)c2cc[nH]c2n1 [GSK1392956A]
94

Look up Percent Control of NS(=O)(=O)c1ccc(N/N=C2\C(=O)Nc3ccc(C(=O)NCCc4c[nH]cn4)cc32)cc1 [GW300660X] and report it.
69

Could you please provide reported Percent Control for Cl.O=S1CCN(Cc2ccc(-c3ccc4ncnc(Nc5ccc(OCc6ccccc6)c(F)c5)c4c3)o2)CC1 [GW576924A] ? Thanks!
83

Note Percent Control for the compound shown: CN(C)CCNC(=O)Nc1ccc(N(C)c2ccnc(Nc3ccc(CS(C)(=O)=O)cc3)n2)cc1.Cl [GW830900A]
83

Respond only with Percent Control recorded for COc1ccc2c(-c3ccnc(Nc4cccc(OC(F)(F)F)c4)n3)cnn2n1 [GW810372X]
81

Fill in Percent Control for record CCn1c(-c2nonc2N)nc2c(C#CC(C)(C)O)nc(OCCNC)cc21.Cl
100

Please list Percent Control recorded for the compound NS(=O)(=O)c1ccc(N/N=C2\C(=O)Nc3ccc(-c4cnco4)cc32)cc1
93

Read the entry COc1ccc(COc2ccc(Cc3cnc(N)nc3N)cc2OC)cc1 [GW632580X] and write its reported Percent Control.
70

Provide measured Percent Control value, entry: COC(=O)Nc1nc2ccc(Oc3ccc(NC(=O)Nc4cc(C(F)(F)F)ccc4F)cc3)cc2s1.Cl [GW693917A]
77

Provide measured Percent Control value, entry: COc1cc2ncn(-c3cc(O[C@H](C)c4ccccc4Cl)c(C(N)=O)s3)c2cc1OC [GSK237701A]
75

Provide only the value of recorded Percent Control for COc1ccc2cc(-c3c(-c4ccncc4)nc(-c4ccc(S(C)(=O)=O)cc4C)n3C)ccc2c1
61

State its Percent Control: COc1cc(C)c(N(C)C(=O)CN(C)C)cc1Nc1nc(Nc2cccc(F)c2C(N)=O)c2cc[nH]c2n1
100

Specify reported Percent Control for the compound shown: CC1=C(C(=O)Nc2ccc3[nH]ncc3c2)C(c2ccc3ccccc3c2)CC(=O)N1 (centres unmarked) [GSK270822A]
66

Using the record for C/C(Nc1ccc(S(N)(=O)=O)cc1)=C1/C(=O)Nc2ccccc21 [GW335962X] , state its measured Percent Control.
77

Report measured Percent Control; entry is CN(C)c1cc2c(Nc3ccc4c(cnn4Cc4ccccc4)c3)ncnc2cn1 [GW282974X]
32
